FYI, the data here is from the METLIN SMRT retention time set (Domingo-Almenara et al. 2019).

- method notes: gradient 5% acetonitrile 3 min, to 50% in 2 min, to 85% in 15 min, held 3 min, 100 µL/min
- measurement setup: column: Zorbax Extend-C18 2.1 x 50 mm; eluents: water / acetonitrile, 0.1% formic acid
Decide by RP-LC retention time: equal to or exceeding 800 s means 1, less means -1.

Some entries whose results are on file:
Cc1nc(S(=O)(=O)N2CCc3c(c(-c4nnc(-c5ccccc5F)o4)nn3C)C2)cn1C : -1
Cc1cc(C)cc(C(=O)N2CCCC(C(=O)Nc3c(C)cc(C)cc3C)C2)c1 (stereo unspecified) : 1
COc1ccc(OC)c(NC(=O)c2ccc3nc(-c4ccccc4)cn3c2)c1 : -1

stdin: Would you say `CSc1ccc(NC(=O)C2c3ccccc3Oc3ccccc32)nn1` shows RP-LC retention time at minimum 800 s?
stdout: 1

stdin: Would you say `CC(C)(C)NS(=O)(=O)c1cncc(-c2cc(F)c3nc(N)nn3c2)c1` shows RP-LC retention time at minimum 800 s?
stdout: -1

stdin: Would you say `CNC(=O)c1cccc2c1CCN2C(=O)Nc1ccc(C)cc1` shows RP-LC retention time at minimum 800 s?
stdout: -1

stdin: Would you say `COc1ccc(S(=O)(=O)N2CCC[C@@H]2C(=O)NCc2csc(C)n2)cc1OC` shows RP-LC retention time at minimum 800 s?
stdout: -1

stdin: Would you say `CC1CCN(C(=O)C2=CN(c3ccc(F)cc3)c3ccccc3S2(=O)=O)CC1` shows RP-LC retention time at minimum 800 s?
stdout: 1

stdin: Would you say Cc1nn(C(C)C(=O)NCc2ccco2)c(=O)c2nn(-c3ccccc3)c(C)c12 (stereo unspecified) shows RP-LC retention time at minimum 800 s?
stdout: -1

stdin: Would you say `COc1ccc(OCc2nn3c(-c4ccc(OC)c(OC)c4)nnc3s2)cc1` shows RP-LC retention time at minimum 800 s?
stdout: 1

###

- method notes: gradient 5% acetonitrile 3 min, to 50% in 2 min, to 85% in 15 min, held 3 min, 100 µL/min
- measurement setup: column: Zorbax Extend-C18 2.1 x 50 mm; eluents: water / acetonitrile, 0.1% formic acid
measured parameter: RP-LC retention time (s)
# unit: s | format: bare number

Consider the following illustrative entries.
CC(C)NC(=O)N1CCCC(c2cccc(C(=O)NCc3ccc(F)cc3F)c2)C1 (configuration not stated) : 862
COc1ccccc1-c1nc(Cn2nnc(-c3nc(-c4ccc(OC(C)C)cc4)no3)c2C)c(C)o1 : 1230
Cc1nnc2c(NC(=O)C3CCCC3)cccn12 : 644

stdin: I am curious: what RP-LC retention time value has been reported for `COc1cc(C(=O)N2CCC3(CC2)Nc2cc(F)ccc2-n2cccc23)cc(OC)c1OC` ?
stdout: 868

stdin: I am curious: what RP-LC retention time value has been reported for `O=C(CSc1nnc(-c2cccc(S(=O)(=O)N3CCOCC3)c2)o1)c1ccccc1` ?
stdout: 847

stdin: I am curious: what RP-LC retention time value has been reported for `CCOC(=O)c1noc2nc(C)nc(NCCc3ccc(Cl)cc3)c12` ?
stdout: 1210

stdin: I am curious: what RP-LC retention time value has been reported for Cc1nnc(C2CCCN(C(=O)c3ccccc3Cl)C2)s1 (configuration not stated) ?
stdout: 652

###

Form field: RP-LC retention time (one value per entry).
- method notes: gradient 5% acetonitrile 3 min, to 50% in 2 min, to 85% in 15 min, held 3 min, 100 µL/min
- measurement setup: column: Zorbax Extend-C18 2.1 x 50 mm; eluents: water / acetonitrile, 0.1% formic acid
# unit: s | format: bare number

Consider the following illustrative entries.
O=C(CCc1ccccc1)NCCN1CCN(c2ccc(Cl)cc2)CC1 : 619
COC1CCN(CC2CCCCCN2C(=O)c2ccoc2)CC1 (stereo not given) : 596
CCNC(=O)N1CCC(c2noc(-c3ccccc3)n2)C1 (stereo not given) : 724
CC(=O)N1CCC(n2c(C)nc(C(=O)N3CCCCC3)c2C)CC1 : 559

Consider the additional molecule presented here.
stdin: I am curious: what RP-LC retention time value has been reported for COc1ccc(-c2noc(C3CC(=O)N(c4ccc(F)cc4)C3)n2)cc1OC (stereo not given) ?
stdout: 808
